Tgt: Kappa-type opioid receptor (Homo sapiens)
Sequence (P41145 whole entry): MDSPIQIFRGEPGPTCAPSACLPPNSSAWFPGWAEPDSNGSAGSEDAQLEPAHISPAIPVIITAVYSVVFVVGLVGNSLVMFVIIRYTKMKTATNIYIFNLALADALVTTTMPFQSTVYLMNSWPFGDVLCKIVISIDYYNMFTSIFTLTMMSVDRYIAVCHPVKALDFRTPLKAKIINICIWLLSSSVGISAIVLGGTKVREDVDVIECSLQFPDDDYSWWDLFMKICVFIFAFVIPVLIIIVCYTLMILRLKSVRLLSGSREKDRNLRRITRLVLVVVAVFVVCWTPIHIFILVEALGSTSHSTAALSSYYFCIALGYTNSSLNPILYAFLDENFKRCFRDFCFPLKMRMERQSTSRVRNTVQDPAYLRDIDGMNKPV
Procedure summary: Agonist activity at human kappa opioid receptor by [35S]GTP-gamma-S binding assay
pKi: −log10 of the molar value.
Is pKi at least 8? Then YES. If not, NO.

Past entries and their recorded results:
# Query smiles, Class label
data = [
    ("CN(C(=O)CC(=O)Nc1nccs1)[C@H](CN1CC[C@H](O)C1)c1ccccc1", "YES"),
    ("CN(C(=O)CC(=O)Nc1ccc(CNS(C)(=O)=O)cc1)[C@H](CN1CC[C@H](O)C1)c1ccccc1", "NO"),
]

Now take the following compound into account.
Query: Reported pKi at or above 8? CN(C(=O)CC(=O)Nc1ccccc1)[C@H](CN1CC[C@H](O)C1)c1ccccc1
Result: YES
